Assay: Retention time of the compound up to by LC/MS analysis
Assay type: physicochemical
Here, each record is paired with measured Retention_time data.
Write the number in min without appending the unit.

>>> result_number("CCO[Si](O[C@@H](C(=O)O[C@H]1C[C@@]2(O)[C@@H](OC(=O)c3ccccc3)[C@@H]3[C@]4(OC(C)=O)CO[C@@H]4C[C@H](O)[C@@]3(C)C(=O)[C@H](OC(C)=O)C(=C1C)C2(C)C)[C@@H](NC(=O)c1ccccc1)c1ccccc1)(OC(C)(C)C)OC(C)(C)C")
16.1

Query string: # lookup: Retention_time of CCO[Si](OCC)(OCC)O[C@H]1C[C@H]2OC[C@@]2(OC(C)=O)[C@H]2[C@H](OC(=O)c3ccccc3)[C@]3(O)C[C@H](OC(=O)[C@H](O)[C@@H](NC(=O)c4ccccc4)c4ccccc4)C(C)=C([C@@H](OC(C)=O)C(=O)[C@]12C)C3(C)C
Result string: 14.6

* * *

Experiment: Half life of the compound at C7 position in acetone-d6/D2O/CF3CO2H at 0.01 M by NMR spectroscopy analysis
Format: physicochemical
measured-parameter: t1/2
Entry format: amount then unit.

These recorded examples may help you get a feel for the data.
>>> result("CCO[Si](OCC)(OCC)O[C@H]1C[C@H]2OC[C@@]2(OC(C)=O)[C@H]2[C@H](OC(=O)c3ccccc3)[C@]3(O)C[C@H](OC(=O)[C@H](O)[C@@H](NC(=O)c4ccccc4)c4ccccc4)C(C)=C([C@@H](OC(C)=O)C(=O)[C@]12C)C3(C)C")
"0.5 h"
>>> result("CCO[Si](OCC)(OCC)O[C@H]1C[C@H]2OC[C@@]2(OC(C)=O)[C@H]2[C@H](OC(=O)c3ccccc3)[C@]3(O)C[C@H](OC(=O)[C@H](O[Si](OCC)(OCC)OCC)[C@@H](NC(=O)c4ccccc4)c4ccccc4)C(C)=C([C@@H](OC(C)=O)C(=O)[C@]12C)C3(C)C")
"0.55 h"
>>> result("CC(=O)O[C@H]1C(=O)[C@]2(C)[C@@H](O[Si](OC(C)C)(OC(C)C)OC(C)C)C[C@H]3OC[C@@]3(OC(C)=O)[C@H]2[C@H](OC(=O)c2ccccc2)[C@]2(O)C[C@H](OC(=O)[C@H](O[Si](OC(C)C)(OC(C)C)OC(C)C)[C@@H](NC(=O)c3ccccc3)c3ccccc3)C(C)=C1C2(C)C")
"25 h"

Now turn to the next molecule.
Query string: # lookup: t1/2 of CC(=O)O[C@H]1C(=O)[C@]2(C)[C@@H](O[Si](OC(C)C)(OC(C)C)OC(C)C)C[C@H]3OC[C@@]3(OC(C)=O)[C@H]2[C@H](OC(=O)c2ccccc2)[C@]2(O)C[C@H](OC(=O)[C@H](O)[C@@H](NC(=O)c3ccccc3)c3ccccc3)C(C)=C1C2(C)C
Result string: 28.33 h
